Data credit: ChEMBL document CHEMBL1156031

System name: D(2) dopamine receptor (Homo sapiens, UniProt P14416)
Sequence (P14416 whole entry): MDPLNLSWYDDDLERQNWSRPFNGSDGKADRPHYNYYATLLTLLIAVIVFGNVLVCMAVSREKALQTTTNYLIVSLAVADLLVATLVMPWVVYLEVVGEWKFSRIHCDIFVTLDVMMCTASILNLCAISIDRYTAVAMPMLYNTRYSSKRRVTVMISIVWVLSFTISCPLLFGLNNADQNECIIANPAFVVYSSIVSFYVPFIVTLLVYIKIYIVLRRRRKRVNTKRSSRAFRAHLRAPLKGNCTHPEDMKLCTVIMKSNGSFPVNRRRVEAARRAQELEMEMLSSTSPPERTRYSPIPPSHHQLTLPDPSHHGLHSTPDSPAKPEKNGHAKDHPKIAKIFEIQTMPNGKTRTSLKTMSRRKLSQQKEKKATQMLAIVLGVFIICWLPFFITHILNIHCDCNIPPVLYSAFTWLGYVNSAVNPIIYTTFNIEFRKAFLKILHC
Assay comment: Displacement of [3H]spiperone from D2 receptor
Value kind: Ki

Write down Ki measured for item O=C1Cc2c(cccc2N2CCN(CC3CCc4[nH]c5ccc(F)cc5c4C3)CC2)N1 (centres undefined)
15 nM

Write down Ki measured for item O=c1[nH]c2cccc(OCC3CCN(CCC4CCc5[nH]c6ccc(F)cc6c5C4)CC3)c2o1 (centres undefined)
720 nM

Write down Ki measured for item O=c1[nH]c2cccc(N3C[C@H]4C[C@@H]3CN4CC3CCc4[nH]c5ccc(F)cc5c4C3)c2o1 (some centres undefined)
12 nM

Write down Ki measured for item O=C1Cc2c(ccc3c2OC[C@H](CNCC2CCc4[nH]c5ccc(F)cc5c4C2)O3)N1 (stereo in doubt; 25)
3 nM
